Tested on: Chikungunya virus
assayProcedure: Antiviral activity against Chikungunya virus infected in African green monkey Vero cells assessed as reduction in viral induced cell death incubated for 5 days by MTS reagent based absorbance method
Type: functional, organism-based
experimentalConditions: 120 h
Threshold 4 µM: EC50 strictly smaller gives yes, otherwise no.

                                    compound  answerlabel
 0  CCNc1cc(C)nc(N2CCN(C(=O)c3ccc(Cl)cc3)CC2)n1          yes
 1  CCNc1nc(C)cc(N2CCN(C(=O)c3cccc(C(F)(F)F)c3)CC2)n1          yes
 2   CCNc1nccc(N2CCN(C(=O)c3ccc(F)cc3)CC2)n1           no
 3  CCNc1nc(C)cc(N2CC3CN(C(=O)c4cc(Cl)cc(Cl)c4)CC3C2)n1 (stereo unspecified)           no
 4  Nc1nc(N2CCN(C(=O)c3cc(Cl)cc(Cl)c3)CC2)c2nc[nH]c2n1           no
 5  CCNc1nc(C)cc(N2CCN(C(=O)c3ccc(Br)cc3)CC2)n1          yes
 6  CCNc1nc(C)cc(N2CCN(C(=O)c3ccc(Cl)c([N+](=O)[O-])c3)CC2)n1          yes
 7  CCNc1nc(C)cc(N2CCN(C(=O)c3ccc(C(C)(C)C)cc3)CC2)n1          yes
 8  CCNc1cc(C)nc(NC2CCN(C(=O)c3cc(Cl)cc(Cl)c3)CC2)n1           no
 9  Nc1nc(N2CCN(C(=O)c3ccc(Cl)cc3)CC2)c2nc[nH]c2n1           no
10  CCNc1ccnc(N2CCN(C(=O)c3ccc(Cl)cc3)CC2)n1           no
11  CCNc1ccnc(N2CCN(S(=O)(=O)c3ccc(Cl)cc3)CC2)n1           no
12  Cc1cc(N2CCN(C(=O)c3ccc(Cl)cc3)CC2)nc(NC(C)C)n1           no
13  CCNc1nc(C)cc(N2CC3CCC(C2)N3C(=O)c2cc(Cl)cc(Cl)c2)n1           no
14  O=C(c1ccc(Cl)c(Cl)c1)N1CCN(c2ncnc3[nH]cnc23)CC1           no
15  CCNc1cc(C)nc(N2CC3CN(C(=O)c4cc(Cl)cc(Cl)c4)CC3C2)n1 (stereo unspecified)           no
16  Cc1cc(N2CCN(C(=O)c3cccc(Br)c3)CC2)nc(N(C)C)n1           no
17  CCNc1cc(C)nc(N2CCN(C(=O)c3cccc(Br)c3)CC2)n1           no
18  CCNc1nc(C)cc(N2CCN(C(=O)c3ccc(F)cc3F)CC2)n1           no
19  CNc1nc(C)cc(N2CCN(S(=O)(=O)c3ccc(F)cc3)CC2)n1           no
20  CCNc1cc(C)nc(N2CCCC(NC(=O)c3cc(Cl)cc(Cl)c3)C2)n1 (stereo unspecified)           no
21  CCNc1nc(C)cc(N2CCC3(CC2)CC(=O)c2ccccc2O3)n1           no
22  O=C(c1cc(Cl)cc(Cl)c1)N1CCN(c2ncnc3[nH]cnc23)CC1           no
23  Cc1nc(N2CCN(C(=O)c3ccc(Cl)cc3)CC2)c2nc[nH]c2n1           no
24  CCNc1nc(C)cc(N2CCN(C(=O)c3ccc(Cl)c(C(F)(F)F)c3)CC2)n1          yes
25  CCNc1cc(C(F)(F)F)nc(N2CCN(C(=O)c3cccc(Br)c3)CC2)n1           no

* * *

assayProcedure: Metabolic stability in human liver microsomes assessed as half-life preincubated for 5 mins followed by NADPH addition and measured upto 60 mins by HPLC-MS/MS analysis
Assay type: ADME, Microsome
experimentalConditions: time < 65 min
quantityMeasured: half-life

>>> print(df.to_string())
                                   compound  quantitymeasured   result
0  O=C(c1ccc(Cl)c(Cl)c1)N1CCN(c2nc(C(F)(F)F)nc3[nH]cnc23)CC1         half-life    > 1 h
1  CCNc1nc(C)cc(N2CCN(C(=O)c3ccc(F)cc3)CC2)n1         half-life    > 1 h
2  CCNc1nc(C)cc(N2CC3CN(C(=O)c4cc(Cl)cc(Cl)c4)CC3C2)n1 (centres undefined)         half-life    > 1 h
3  CCNc1nc(C)cc(NC2CN(C(=O)c3cc(Cl)cc(Cl)c3)C2)n1         half-life  0.617 h
4  Cc1nc(Cl)c(N)c(N2CCN(C(=O)c3ccc(Cl)c(Cl)c3)CC2)n1         half-life    > 1 h
5  CCNc1nc(C)cc(N2CCN(C(=O)c3ccc(Br)cc3)CC2)n1         half-life    > 1 h
6  CCNc1nc(C)cc(N2CCC3(CCN(C(=O)c4cc(Cl)cc(Cl)c4)C3)C2)n1 (centres undefined)         half-life    > 1 h
7  CCNc1nc(C)cc(N2CCN(C(=O)c3cccc(C(F)(F)F)c3)CC2)n1         half-life    > 1 h
8  Cc1cc(N2CCN(C(=O)c3ccc(Br)cc3)CC2)nc(N(C)C)n1         half-life    > 1 h

* * *

assayProcedure: Cytotoxicity against African green monkey Vero cells assessed as reduction in overall metabolic activity incubated for 5 days by MTS reagent based absorbance method
Format: toxicity, cell-based
experimentalConditions: chlorocebus sabaeus, time 5 day
Readings of CC50 at 120 h for the listed compounds
quantityMeasured: CC50 at 120 h

In [3]: df
Out[3]:
                            structurestring  quantitymeasured    result
0  CCNc1cc(C(F)(F)F)nc(N2CCN(C(=O)c3ccc(Br)cc3)CC2)n1     CC50 at 120 h   > 25 µM
1  CCNc1nc(C)cc(N2CCN(C(=O)c3ccc(Br)cc3)CC2)n1     CC50 at 120 h   > 96 µM
2  Cc1cc(N(C)C)nc(N2CCN(C(=O)c3cc(Cl)cc(Cl)c3)CC2)n1     CC50 at 120 h  > 100 µM
3  CCNc1nc(C)cc(N2CCN(C(=O)c3ccc(Cl)c([N+](=O)[O-])c3)CC2)n1     CC50 at 120 h   > 20 µM
4  CCNc1nc(C)cc(N2CCN(C(=O)c3cccc(I)c3)CC2)n1     CC50 at 120 h  > 100 µM
5  CCNc1nc(N2CCN(C(=O)c3ccc(Cl)c(Cl)c3)CC2)cc(C(F)(F)F)n1     CC50 at 120 h  > 100 µM
6  CCNc1nc(C)cc(N2CCN(C(=O)c3ccc([N+](=O)[O-])cc3)CC2)n1     CC50 at 120 h  > 100 µM

* * *

System: Chikungunya virus
assayProcedure: Antiviral activity against Chikungunya virus infected in African green monkey Vero cells assessed as reduction in viral induced cell death incubated for 5 days by MTS reagent based absorbance method
Type: functional, organism-based
experimentalConditions: 120 h
pEC50: −log10 of the molar value.
quantityMeasured: pEC50

>>> print(df.to_string())
                                    compound    systemundertest  quantitymeasured  censorsymbol  recordednumber
 0  CCNc1nc(C)cc(N2CCN(C(=O)c3ccc([N+](=O)[O-])cc3Cl)CC2)n1  Chikungunya virus             pEC50             <            6.11
 1  Cc1cc(N(C)C)nc(N2CCN(C(=O)c3ccc(Br)cc3)CC2)n1  Chikungunya virus             pEC50             =            4.89
 2  CNc1ccnc(N2CCN(S(=O)(=O)c3ccc(F)cc3)CC2)n1  Chikungunya virus             pEC50             =            5.02
 3  CCNc1cc(C)nc(N2CCN(S(=O)(=O)c3ccc4ccccc4c3)CC2)n1  Chikungunya virus             pEC50             =            5.00
 4  CC(C)Nc1ccnc(N2CCN(S(=O)(=O)c3ccc(F)cc3)CC2)n1  Chikungunya virus             pEC50             =            5.00
 5  CCNc1cc(N2CCN(S(=O)(=O)c3ccc(Cl)cc3)CC2)ncn1  Chikungunya virus             pEC50             =            4.80
 6  CCNc1cc(C)nc(N2CC3CCC(C2)N3C(=O)c2cc(Cl)cc(Cl)c2)n1  Chikungunya virus             pEC50             <            4.00
 7  Cc1nc(Cl)c(N)c(N2CCN(C(=O)c3ccc(Cl)c(Cl)c3)CC2)n1  Chikungunya virus             pEC50             =            5.01
 8    CCNc1nc(C)cc(N2CCN(Cc3ccc(F)cc3)CC2)n1  Chikungunya virus             pEC50             =            4.66
 9  Cc1nc(Cl)c(N)c(N2CCN(C(=O)c3cc(Cl)cc(Cl)c3)CC2)n1  Chikungunya virus             pEC50             =            4.49
10  CCNc1cc(C)nc(N2CCN(S(=O)(=O)c3ccc(Cl)nc3)CC2)n1  Chikungunya virus             pEC50             =            3.92
11   CCNc1nc(C)cc(N2CCN(C(=O)c3ccccc3)CC2)n1  Chikungunya virus             pEC50             =            5.69
12    O=S(=O)(c1ccc(F)cc1)N1CCN(c2ncccn2)CC1  Chikungunya virus             pEC50             =            3.51
13  CCNc1nc(C)cc(N2CCN(C(=O)c3cccc(I)c3)CC2)n1  Chikungunya virus             pEC50             =            6.00
14  O=C(c1ccc(Cl)cc1)N1CCN(c2ncnc3[nH]cnc23)CC1  Chikungunya virus             pEC50             =            4.03
15  CCNc1nc(C)cc(NC2CN(C(=O)c3cc(Cl)cc(Cl)c3)C2)n1  Chikungunya virus             pEC50             =            5.07
16  CCNc1cc(N2CCN(S(=O)(=O)c3ccc(F)cc3)CC2)ncn1  Chikungunya virus             pEC50             <            3.56
17  Cc1cc(N(C)C)nc(N2CCN(C(=O)c3cc(Cl)cc(Cl)c3)CC2)n1  Chikungunya virus             pEC50             <            4.00
18  CCNc1cc(C)nc(N2CC3CN(C(=O)c4ccc(Cl)cc4)CC3C2)n1 (configuration not stated)  Chikungunya virus             pEC50             =            4.92
19  CCNc1nc(C)cc(N2CCN(S(=O)(=O)c3ccc(Cl)cc3)CC2)n1  Chikungunya virus             pEC50             =            5.56
20  Cc1nc(N2CCN(C(=O)c3cc(Cl)cc(Cl)c3)CC2)c2nc[nH]c2n1  Chikungunya virus             pEC50             <            4.00
21  CCNc1nc(C)cc(N2CC(NC(=O)c3cc(Cl)cc(Cl)c3)C2)n1  Chikungunya virus             pEC50             <            4.00
